So I've got a bunch of compounds here, and I need their pEC50 values.
- Test system: HRV16
- METHOD: HRV16 HELA EC50 (cytopathic effect in H1-HeLa cells)
- Type: cell-based
- APPLIED CONDITIONS: 96 h, H1-HeLa cells, 33° C., read-out: HRV16 HELA EC50
Lab note — pEC50 values are minus log10 of concentrations in M.

Enquiry: Reported pEC50 for C[C@H](NP(=O)(OC[C@@]1(C#N)O[C@@H](c2ccc3c(N)ncnn23)[C@H](O)[C@@H]1O)Oc1ccccc1)C(=O)O[C@H]1CC[C@@H](C(F)(F)F)CC1 (single isomer, unassigned) [Example 180] : what is it?
Return: 6.07

Enquiry: Reported pEC50 for CCCCCCCCCCCCOC(=O)[C@H](C)NP(=O)(OC[C@@]1(C#N)O[C@@H](c2ccc3c(N)ncnn23)[C@H](O)[C@@H]1O)Oc1ccccc1 (some centres unmarked) [Example 191] : what is it?
Return: 5.47

Enquiry: Reported pEC50 for CC1(C(=O)OCCNP(=O)(OC[C@@]2(C#N)O[C@@H](c3ccc4c(N)ncnn34)[C@H](O)[C@@H]2O)Oc2ccccc2)CC1 (some centres unmarked) [Example 141] : what is it?
Return: 4.83

Enquiry: Reported pEC50 for C[C@H](NP(=O)(OC[C@@]1(C#N)O[C@@H](c2ccc3c(N)ncnn23)[C@H](O)[C@@H]1O)Oc1ccccc1)C(=O)OC1CCCC(C)(C)C1 (mixture of isomers) [Example 154] : what is it?
Return: 5.71
